- TARGET ENTITY: Epidermal growth factor receptor (Homo sapiens)
- Sequence (P00533 whole entry): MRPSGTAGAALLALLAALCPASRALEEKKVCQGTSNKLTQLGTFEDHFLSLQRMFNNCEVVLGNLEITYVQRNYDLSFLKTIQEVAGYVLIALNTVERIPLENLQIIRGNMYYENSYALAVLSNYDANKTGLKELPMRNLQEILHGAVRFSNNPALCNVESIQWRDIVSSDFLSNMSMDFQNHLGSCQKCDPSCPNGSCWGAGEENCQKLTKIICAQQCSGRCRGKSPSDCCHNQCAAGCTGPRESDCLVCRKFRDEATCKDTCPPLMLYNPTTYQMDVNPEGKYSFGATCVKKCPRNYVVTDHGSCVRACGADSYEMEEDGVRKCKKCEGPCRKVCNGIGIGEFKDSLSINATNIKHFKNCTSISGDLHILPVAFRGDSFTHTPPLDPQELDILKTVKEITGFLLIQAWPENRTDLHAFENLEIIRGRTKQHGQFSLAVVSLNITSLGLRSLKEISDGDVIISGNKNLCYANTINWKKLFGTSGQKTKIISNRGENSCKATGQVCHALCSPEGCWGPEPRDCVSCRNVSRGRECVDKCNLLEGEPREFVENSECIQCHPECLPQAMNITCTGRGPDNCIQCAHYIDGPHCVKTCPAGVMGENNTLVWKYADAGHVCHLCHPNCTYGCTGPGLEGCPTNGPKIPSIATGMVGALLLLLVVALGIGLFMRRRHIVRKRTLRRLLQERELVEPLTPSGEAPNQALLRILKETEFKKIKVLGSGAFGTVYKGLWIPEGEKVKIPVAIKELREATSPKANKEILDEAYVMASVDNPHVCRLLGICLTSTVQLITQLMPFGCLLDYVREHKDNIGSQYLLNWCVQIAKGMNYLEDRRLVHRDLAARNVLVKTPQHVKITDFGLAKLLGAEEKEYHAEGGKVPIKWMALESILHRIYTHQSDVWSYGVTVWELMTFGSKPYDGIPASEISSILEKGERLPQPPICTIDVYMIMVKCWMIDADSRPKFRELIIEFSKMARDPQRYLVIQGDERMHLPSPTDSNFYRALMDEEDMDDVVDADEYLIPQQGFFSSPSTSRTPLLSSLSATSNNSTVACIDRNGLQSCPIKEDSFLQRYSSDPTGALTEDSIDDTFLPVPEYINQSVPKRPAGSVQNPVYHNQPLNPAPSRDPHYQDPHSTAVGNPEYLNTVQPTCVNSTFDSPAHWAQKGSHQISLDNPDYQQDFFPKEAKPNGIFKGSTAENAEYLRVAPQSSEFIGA
- REPORTED CONDITIONS: A549, at 1 µM
RESULT TYPE: inhibition (%)

CCOc1cc2ncnc(Nc3ccc(F)c(Cl)c3)c2cc1NC(=O)CCN(C)C	100
CCOc1cc2ncnc(Nc3ccc(F)c(Cl)c3)c2cc1NC(=O)CCN1CCCCC1	92
C=CC(=O)Nc1cc2c(Nc3ccc(F)c(Cl)c3)ncnc2cc1OCC	99

(I) CCOc1cc2ncc(C#N)c(Nc3ccc(OCc4ccccn4)c(Cl)c3)c2cc1NC(=O)CCN1CCCCC1
(II) CCOc1cc2ncnc(Nc3ccc(F)c(Cl)c3)c2cc1NC(=O)CCN1CCOCC1
Sorting ascending by inhibition, which comes first: I or II ? // respond with label for picked entry I
